Below, each of the compounds is paired with its reported GI50 value.
# Tested on: NCI-H23 lung
# Test Method Notes: NCI tumour cell line growth inhibition, 48 h

Example entries begin here.
# Compound, GI50
measured = [
    ("COc1cc[nH]c1/C=C1\\C(=O)Nc2ccccc21", "7700 nM"),
    ("CC(C)c1ccc(C(=O)Nc2sc3c(c2C(N)=O)CCC(=O)C3)cc1", "381 nM"),
]

Look at this compound and give its reported GI50. CC/C=C\C[C@@H]1C/C=C2/C(=O)C=C[C@H]2C/C=C\CCCC(=O)O1
993 nM

Entry CC(=O)OC1Oc2ccccc2-c2oc(=O)c(-c3cc4ccc(N(C)C)cc4oc3=O)cc21 (configuration not stated) has what GI50?
10600 nM

Please give the measured GI50 for this compound: CCC#CC[C@H]1C/C=C2/C(=O)C=C[C@@H]2C/C=C\CCCC(=O)O1
873 nM

For the compound CCN(CC)c1ccc(C(=N)c2ccc(N(CC)CC)cc2)cc1 , what GI50 is on record?
260 nM

Name the reported GI50 value associated with the compound CN(C)c1ccc(N)cc1
3140 nM

// GI50 lookup, key: CCOC(=O)Sc1ncnc2nc[nH]c12
3930 nM

Which GI50 is listed for COc1ccc(C(=O)c2cc(C)c(OC)c(C)c2)c(OC)c1N(C(=O)C(Cl)Cl)C(=O)C(Cl)Cl ?
90.9 nM

// provenance: PubChem BioAssay (NCI)
